# tested target: CodY-His5 (Bacillus subtilis)
# Sequence: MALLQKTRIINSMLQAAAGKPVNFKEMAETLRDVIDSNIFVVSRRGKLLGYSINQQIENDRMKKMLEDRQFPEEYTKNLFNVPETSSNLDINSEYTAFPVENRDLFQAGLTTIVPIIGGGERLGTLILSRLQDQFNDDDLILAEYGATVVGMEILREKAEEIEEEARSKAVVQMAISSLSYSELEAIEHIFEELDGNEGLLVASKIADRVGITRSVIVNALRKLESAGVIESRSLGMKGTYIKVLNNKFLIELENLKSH
# method notes: EMSA
# test parameters: CodY assays with 10 mM ILV (plus 2 mM GTP in Fig 2 footprints); Kd = protein monomer concentration shifting 50% of DNA; buffer, salt, pH and temperature not …
property measured: pKd
Answers are plain numbers, as −log10 of the molar value.

Give recorded pKd. TCGTTTCGTCATATTATCTGACAATTAATTGACAGAATATTTTAACATAATTATTAGGAGGATT (double strand) [braB64] 8.30
